Data origin: ChEMBL document CHEMBL1125107

# method: Evaluated for its stability in human plasma pH 6.5 at 37 degrees Celsius as determined by HPLC analysis
# Format: ADME
assay endpoint: half-life (min)
Just the number please, in min, no unit attached.

input: Supply measured half-life of CCn1cc(C(=O)OCC2=C(C(=O)O)N3C(=O)[C@@H](NC(=O)COc4ccccc4)C3SC2)c(=O)c2cc3c(cc21)OCO3 (stereo partly specified) in your reply.
output: 360

* * *

# Test system: Serratia marcescens
# method: In vitro antibacterial activity was determined against Serratia marcescens 1071
# Assay type: functional
Measured MIC, listed per entry.
Give the value in µg/mL but do not write µg/mL after it.

A selection of reference data follows.
>>> print(df.to_string())
                                   molecule  reported_value
0  CN1CCN(c2c(F)cc3c(=O)c(C(=O)O)cn(CCF)c3c2F)CC1            0.25
1  CCn1cc(C(=O)O)c(=O)c2cc(F)c(N3CCSCC3)cc21            0.25
2  CCn1cc(C(=O)OCC2=C(C(=O)O)N3C(=O)[C@@H](NC(=O)COc4ccccc4)C3SC2)c(=O)c2cc3c(cc21)OCO3 (stereo not given in full)               1

Now look at this entry.
input: // fetch MIC given entry CCn1cc(C(=O)O)c(=O)c2cc(F)c(-n3cccc3)cc21
output: 0.5

* * *

# method: Evaluated for its stability in dog serum at 37 degrees Celsius as determined by HPLC analysis
# Format: ADME, organism-based, Canis lupus familiaris
assay endpoint: half-life (h)
Provide the reading as a plain figure in h.

input: Provide one value: measured half-life of CO/N=C(/C(=O)N[C@@H]1C(=O)N2C(C(=O)O)=C(COC(=O)c3cn(CCF)c4c(F)c(N5CCN(C)CC5)c(F)cc4c3=O)CSC12)c1csc(N)n1 (stereo partly specified)
output: 3.9

* * *

# Test system: Enterococcus faecalis
# method: In vitro antibacterial activity was determined against Enterococcus faecalis ATCC 29212
# Assay type: functional
assay endpoint: MIC (µg/mL)
Report as a plain number; the unit µg/mL is understood.

Look over these answered cases.
>>> print(df.to_string())
                                   compound  reported_value
0  CCn1cc(C(=O)OCC2=C(C(=O)O)N3C(=O)[C@@H](NC(=O)COc4ccccc4)C3SC2)c(=O)c2cc3c(cc21)OCO3 (stereo not given in full)              64
1  CCn1cc(C(=O)O)c(=O)c2cc(F)c(N3CCSCC3)cc21               1
2  CN1CCN(c2c(F)cc3c(=O)c(C(=O)O)cn(CCF)c3c2F)CC1               4
3  CC(=O)OCC1=C(C(=O)O)N2C(=O)[C@@H](NC(=O)COc3ccccc3)C2SC1 (stereo not given in full)              64

// moving on: another record for MIC
input: Fill in MIC for record CCn1cc(C(=O)O)c(=O)c2cc(F)c(-n3cccc3)cc21
output: 2

* * *

# method: Evaluated for its stability in human serum at 37 degrees Celsius as determined by HPLC analysis
# Assay type: ADME, organism-based
assay endpoint: half-life (h)
Reply numerically in h, unit not repeated.

input: Determine its reported half-life: CO/N=C(/C(=O)N[C@@H]1C(=O)N2C(C(=O)O)=C(COC(=O)c3cn(CCF)c4c(F)c(N5CCN(C)CC5)c(F)cc4c3=O)CSC12)c1csc(N)n1 (stereo partly specified)
output: 6.3

* * *

# method: Evaluated for its stability in rat blood at 37 degrees Celsius as determined by HPLC analysis
# Format: ADME, organism-based
assay endpoint: half-life (h)
# output: bare number, implied unit h

input: // Input: CO/N=C(/C(=O)N[C@@H]1C(=O)N2C(C(=O)O)=C(COC(=O)c3cn(CCF)c4c(F)c(N5CCN(C)CC5)c(F)cc4c3=O)CSC12)c1csc(N)n1 (stereo partly specified) . Output its half-life only.
output: 5.8

* * *

# Test system: Pseudomonas aeruginosa
# method: Evaluated for the minimum inhibitory concentration against Pseudomonas aeruginosa 18S/H (Class Id beta-lactamase overproducer)
# Assay type: functional
Decide using MIC alone. Strictly below 30 µg/mL: criterion met. Equal to or above 30 µg/mL: criterion not met.

Before answering, review these 4 worked examples.
compound	answer label
CCn1cc(C(=O)OCC2=C(C(=O)O)N3C(=O)[C@@H](NC(=O)COc4ccccc4)C3SC2)c(=O)c2cc(F)c(N3CCCC3)cc21 (some centres undefined)	criterion not met
CCn1cc(C(=O)O)c(=O)c2ccc(C)nc21 [NALIDIXIC ACID]	criterion not met
CCn1cc(C(=O)OCC2=C(C(=O)O)N3C(=O)[C@@H](NC(=O)Cc4cccs4)C3SC2)c(=O)c2cc3c(cc21)OCO3 (some centres undefined)	criterion met
CN1CCN(c2c(F)cc3c(=O)c(C(=O)OCC4=C(C(=O)O)N5C(=O)[C@@H](NC(=O)/C(=N/OC(C)(C)C(=O)O)c6csc(N)n6)C5SC4)cn(CCF)c3c2F)CC1 (some centres undefined)	criterion not met

input: Dear reviewer, please state whether CCn1cc(C(=O)OCC2=C(C(=O)O)N3C(=O)[C@@H](NC(=O)/C(=N/OC)c4csc(N)n4)C3SC2)c(=O)c2cc(F)c(N3CCN(C=O)CC3)cc21 (some centres undefined) has MIC strictly beneath 30 µg/mL.
output: criterion not met

input: Answer whether the compound CN1CCN(c2c(F)cc3c(=O)c(C(=O)OCC4=C(C(=O)O)N5C(=O)[C@@H](NC=O)C5SC4)cn(CCF)c3c2F)CC1 (some centres undefined) has MIC strictly less than 30 µg/mL
output: criterion not met

input: Please indicate whether the reported MIC of O=C(O)c1cn(-c2ccc(F)cc2)c2cc3c(cc2c1=O)OCO3 is strictly below 30 µg/mL.
output: criterion met

input: Below 30 µg/mL on MIC? Entry CCn1cc(C(=O)OCC2=C(C(=O)O)N3C(=O)[C@@H](NC(=O)COc4ccccc4)C3SC2)c(=O)c2cc(F)c(-n3cccc3)cc21 (some centres undefined)
output: criterion not met

input: Hello, I'm reviewing records and need to know if MIC of CCn1cc(C(=O)OCC2=C(C(=O)O)N3C(=O)[C@@H](NC(=O)/C(=N/OC)c4csc(N)n4)C3SC2)c(=O)c2ccc(C)nc21 (some centres undefined) is below 30 µg/mL. Could you check?
output: criterion not met

input: Dear reviewer, please state whether CO/N=C(\C(=O)N[C@@H]1C(=O)N2C(C(=O)O)=C(COC(C)=O)CS[C@H]12)c1csc(N)n1 [CEFOTAXIME] has MIC strictly beneath 30 µg/mL.
output: criterion not met

input: Quick check: does CCn1cc(C(=O)OCC2=C(C(=O)O)N3C(=O)[C@@H](NC(=O)/C(=N/OC)c4csc(N)n4)C3SC2)c(=O)c2cc(F)c(N3CCSCC3)cc21 (some centres undefined) have MIC under 30 µg/mL?
output: criterion met

input: Problem: For the compound CCn1cc(C(=O)OCC2=C(C(=O)O)N3C(=O)[C@@H](NC(=O)Cc4cccs4)C3SC2)c(=O)c2cc(F)c(N3CCN(C=O)CC3)cc21 (some centres undefined) , is MIC under 30 µg/mL?
output: criterion met

input: # TODO verify MIC < 30 µg/mL strictly for this compound: CCn1cc(C(=O)OCC2=C(C(=O)O)N3C(=O)[C@@H](NC(=O)/C(=N/OC)c4csc(N)n4)C3SC2)c(=O)c2cc3c(cc21)OCO3 (some centres undefined)
output: criterion met

input: Decide: MIC of CCn1cc(C(=O)OCC2=C(C(=O)O)N3C(=O)[C@@H](NC(=O)COc4ccccc4)C3SC2)c(=O)c2cc(F)c(N3CCSCC3)cc21 (some centres undefined) strictly below 30 µg/mL?
output: criterion not met

* * *

# method: Evaluated for its stability in monkey serum at 37 degrees Celsius as determined by HPLC analysis
# Assay type: ADME, cell-free
# setup conditions: simiiformes
assay endpoint: half-life (h)
Answer in h, number only, no unit symbol.

input: Supply recorded half-life for CO/N=C(/C(=O)N[C@@H]1C(=O)N2C(C(=O)O)=C(COC(=O)c3cn(CCF)c4c(F)c(N5CCN(C)CC5)c(F)cc4c3=O)CSC12)c1csc(N)n1 (stereo partly specified) here.
output: 5.7

* * *

# method: Evaluated for its stability in phosphate buffer, pH 6.5 at 37 degrees Celsius as determined by HPLC analysis
# Assay type: physicochemical
assay endpoint: half-life (h)
The reply should be a number in h, with the unit left off.

input: // Input: CO/N=C(/C(=O)N[C@@H]1C(=O)N2C(C(=O)O)=C(COC(=O)c3cn(CCF)c4c(F)c(N5CCN(C)CC5)c(F)cc4c3=O)CSC12)c1csc(N)n1 (stereo partly specified) . Output its half-life only.
output: 6.9

* * *

# Test system: Proteus mirabilis
# method: In vitro antibacterial activity was determined against Proteus mirabilis 90
# Format: functional
assay endpoint: log10(MIC) (log10 of the value in µg/mL)
Recorded MIC (log10, µg/mL)

input: Please indicate recorded log10(MIC) of CCn1cc(C(=O)OCC2=C(C(=O)O)N3C(=O)[C@@H](NC(=O)COc4ccccc4)C3SC2)c(=O)c2ccc(C)nc21 (stereo partly specified) measured with Proteus mirabilis.
output: 1.51

input: Answer with log10(MIC) of CCn1cc(C(=O)O)c(=O)c2cc(F)c(-n3cccc3)cc21 [IRLOXACIN] measured for Proteus mirabilis.
output: 1.81

input: Give log10(MIC) for this entry on Proteus mirabilis: CC(=O)OCC1=C(C(=O)O)N2C(=O)[C@@H](NC(=O)COc3ccccc3)C2SC1 (stereo partly specified)
output: 1.81

input: Under Proteus mirabilis, report log10(MIC) for CCn1cc(C(=O)OCC2=C(C(=O)O)N3C(=O)[C@@H](NC(=O)COc4ccccc4)C3SC2)c(=O)c2cc3c(cc21)OCO3 (stereo partly specified)
output: 0.60

input: Enter measured log10(MIC), system Proteus mirabilis, for the molecule shown: CN1CCN(c2c(F)cc3c(=O)c(C(=O)O)cn(CCF)c3c2F)CC1 [FLEROXACIN]
output: -0.30

input: With Proteus mirabilis as the test system, provide measured log10(MIC) for this molecule: CCn1cc(C(=O)O)c(=O)c2cc(F)c(N3CCSCC3)cc21
output: 1.20
